// reported EC50 for each item listed
target: human GPR119 (Homo sapiens, UniProt Q8TDV5); assay: Functional cellular assay measuring GPR119-mediated cAMP release (HTRF), HEK-293 cells stably expressing recombinant GPR119; details: cell line expressing human GPR119; cAMP response, 30 minutes at room temperature
Sequence (Q8TDV5 whole entry): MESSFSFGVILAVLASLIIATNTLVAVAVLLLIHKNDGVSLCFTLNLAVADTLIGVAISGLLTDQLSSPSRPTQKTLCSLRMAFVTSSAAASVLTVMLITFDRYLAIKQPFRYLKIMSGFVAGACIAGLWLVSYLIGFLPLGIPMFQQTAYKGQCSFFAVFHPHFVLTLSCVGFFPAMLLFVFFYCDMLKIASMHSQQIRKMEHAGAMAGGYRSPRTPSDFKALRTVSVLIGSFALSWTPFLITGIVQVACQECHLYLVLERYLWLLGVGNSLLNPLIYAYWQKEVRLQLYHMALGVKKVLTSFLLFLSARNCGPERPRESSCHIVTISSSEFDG
Give the value, in units of nM, as a plain number.

Here is how some compounds turned out for EC50.
Cc1cnc(-c2ccc(O[C@@H]3CCN(c4cc(F)c5c(c4)C(=O)CC5)C3=O)cn2)s1; 62
CCOCCOc1ccc(O[C@@H]2CCN(c3cc(F)c4c(c3)C(=O)CC4)C2=O)cn1; 277
O=C1CCc2c(F)cc(N3CC[C@@H](Oc4ccc(OCc5cnccn5)nc4)C3=O)cc21; 1190
O=C1CC[C@@H](COc2ccc(O[C@@H]3CCN(c4cc(F)c5c(c4)C(=O)CC5)C3=O)cn2)N1; 16300
N#Cc1cc(O[C@@H]2CCN(c3cc(F)c4c(c3)C(=O)CC4)C2=O)cnc1OCC1CC1; 242

query: Which EC50 is listed for `O=C1CCc2c(F)cc(N3CC[C@@H](Oc4ccc(C(=O)N5CCCC5)nc4)C3=O)cc21` ?
result: 3180

query: Thanks! And `O=C1CCc2c(F)cc(N3CC[C@@H](Oc4ccc(OCCF)nc4)C3=O)cc21` ?
result: 64
